biological target: 5-HT6 receptor (Homo sapiens (Human), UniProt P50406); test: Functional assay: inhibition of serotonin-induced intracellular cAMP in HEK 293 cells expressing 5-HT6 receptor (LANCE cAMP); type: cell-based; settings: HEK 293 cells expressing 5-HT6 receptor; read-out: IC50 inhibition of serotonin 5-HT6 receptors in the setting of functional assay (serotonin-stimulated intracellular cAMP production)
Sequence (P50406 whole entry): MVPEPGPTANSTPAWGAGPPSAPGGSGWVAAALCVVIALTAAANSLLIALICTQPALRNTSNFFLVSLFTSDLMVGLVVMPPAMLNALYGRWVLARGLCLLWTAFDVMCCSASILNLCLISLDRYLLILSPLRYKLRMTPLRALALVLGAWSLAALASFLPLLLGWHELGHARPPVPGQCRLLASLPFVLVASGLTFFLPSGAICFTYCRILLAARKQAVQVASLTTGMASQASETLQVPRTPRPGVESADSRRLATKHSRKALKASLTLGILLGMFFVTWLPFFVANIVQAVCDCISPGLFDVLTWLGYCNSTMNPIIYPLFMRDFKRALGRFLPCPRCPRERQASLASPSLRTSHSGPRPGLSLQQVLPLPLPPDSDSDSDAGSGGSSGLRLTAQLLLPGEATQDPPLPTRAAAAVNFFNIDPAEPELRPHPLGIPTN
Please use 1 (yes) for IC50 under 5 nM and 0 (no) for everything else, ties included.

Here are 3 compounds together with their reported answers.
- chemicalString: "CNc1nn2c(C)cc(C)nc2c1S(=O)(=O)c1cccc(Cl)c1"
  className: "1 (yes)"
- chemicalString: "Cc1cc(C)n2nc(N(C)C)c(S(=O)(=O)c3ccccc3)c2n1"
  className: "0 (no)"
- chemicalString: "CNc1nn2c(C)cc(C)nc2c1S(=O)(=O)c1ccc(F)cc1"
  className: "0 (no)"

Now turn to the next compound.
INPUT: Check if IC50 falls below 5 nM for `CNc1nn2c(C)cc(C)nc2c1S(=O)(=O)c1ccc(F)c(Cl)c1` .
OUTPUT: 1 (yes)

* * *

molecular target: 5-HT6 receptor (Homo sapiens (Human)); test: Competitive radioligand binding ([3H] Lysergic acid diethylamide) to membranes of HeLa cells expressing recombinant human 5-HT6 receptors; conditions: 1.5 nM [3H] Lysergic acid diethylamide, 120 min at 37° C.; read-out: Ki in the setting of competitive binding
propertyLabel: Ki (nM)
One number for each entry, in nM.

INPUT: I'd like to know its Ki. The compound in question is `CNc1nn2c(C)cc(C)nc2c1S(=O)(=O)c1ccccc1`
OUTPUT: 0.237

* * *

biological target: 5-HT6 receptor (Homo sapiens (Human), UniProt P50406); assay: Functional assay: inhibition of serotonin-induced intracellular cAMP in HEK 293 cells expressing 5-HT6 receptor (LANCE cAMP); assay type: cell-based; conditions: HEK293, read-out: % inhibition of 5-HT6 receptors; 10 μM solutions of compounds
propertyLabel: inhibition at 10 µM (%)
Give bare numbers, in %.

Here is how some compounds turned out for inhibition at 10 µM.
- compound: "CNc1nn2c(C)cc(C)nc2c1S(=O)(=O)c1ccc(F)c(Cl)c1 [1.1(9)]"
  uom: "%"
  inhibition at 10 µM: 97
- compound: "CNc1nn2c(C)cc(C)nc2c1S(=O)(=O)c1ccccc1 [1.1(1)]"
  uom: "%"
  inhibition at 10 µM: 77
- compound: "CNc1nn2c(C)cc(C)nc2c1S(=O)(=O)c1cccc(Cl)c1 [1.1(7)]"
  uom: "%"
  inhibition at 10 µM: 100
- compound: "Cc1ccc(Nc2nn3c(C)cc(C)nc3c2S(=O)(=O)c2ccc(C)cc2)cc1 [1(14)]"
  uom: "%"
  inhibition at 10 µM: 70

INPUT: I'd like to know its inhibition at 10 µM. The compound in question is CNc1nn2c(C)cc(C)nc2c1S(=O)(=O)c1ccncc1 [1(4)]
OUTPUT: 97

* * *

Consider the following molecules; for each one, report its inhibition at 10 µM.
molecular target: 5-HT6 receptor (Homo sapiens (Human), UniProt P50406); assay: Functional assay: inhibition of serotonin-induced intracellular cAMP in HEK 293 cells expressing 5-HT6 receptor (LANCE cAMP); type: cell-based; settings: HEK293, read-out: % inhibition of 5-HT6 receptors; 10 μM solutions of compounds
Give bare numbers, in %.

Here is how some molecules turned out for inhibition at 10 µM.
- chemicalString: "Cc1ccc(S(=O)(=O)c2c(Nc3ccccc3)nn3c(C)c(C)c(C)nc23)cc1"
  tgt: "5-HT6 receptor (Homo sapiens (Human), UniProt P50406)"
  inhibition at 10 µM (%): 77
- chemicalString: "Cc1cc(C)n2nc(N3CCN(C(=O)OC(C)(C)C)CC3)c(S(=O)(=O)c3ccccc3)c2n1"
  tgt: "5-HT6 receptor (Homo sapiens (Human), UniProt P50406)"
  inhibition at 10 µM (%): 63
- chemicalString: "CNc1nn2c(C)cc(C)nc2c1S(=O)(=O)c1cccnc1"
  tgt: "5-HT6 receptor (Homo sapiens (Human), UniProt P50406)"
  inhibition at 10 µM (%): 95
- chemicalString: "Cc1cc(C)n2nc(N(C)C)c(S(=O)(=O)c3cccc(Cl)c3)c2n1"
  tgt: "5-HT6 receptor (Homo sapiens (Human), UniProt P50406)"
  inhibition at 10 µM (%): 96
- chemicalString: "CNc1nn2c(C)cc(C)nc2c1S(=O)(=O)c1cccs1"
  tgt: "5-HT6 receptor (Homo sapiens (Human), UniProt P50406)"
  inhibition at 10 µM (%): 98
- chemicalString: "Cc1cc(C)n2nc(N3CCNCC3)c(S(=O)(=O)c3ccccc3)c2n1"
  tgt: "5-HT6 receptor (Homo sapiens (Human), UniProt P50406)"
  inhibition at 10 µM (%): 76
- chemicalString: "Cc1cc(C)n2nc(N(C)C)c(S(=O)(=O)c3cccc(F)c3)c2n1"
  tgt: "5-HT6 receptor (Homo sapiens (Human), UniProt P50406)"
  inhibition at 10 µM (%): 97
- chemicalString: "Cc1cc(C)n2nc(NCCN(C)C)c(S(=O)(=O)c3ccccc3)c2n1"
  tgt: "5-HT6 receptor (Homo sapiens (Human), UniProt P50406)"
  inhibition at 10 µM (%): 91
- chemicalString: "CNc1nn2c(-c3ccccc3)cc(C)nc2c1S(=O)(=O)c1ccccc1"
  tgt: "5-HT6 receptor (Homo sapiens (Human), UniProt P50406)"
  inhibition at 10 µM (%): 90
- chemicalString: "Cc1cc(C)n2nc(N(C)C)c(S(=O)(=O)c3ccccc3)c2n1"
  tgt: "5-HT6 receptor (Homo sapiens (Human), UniProt P50406)"
  inhibition at 10 µM (%): 86

Below are 4 molecules. Give each one its inhibition at 10 µM.
1. CNc1nn2c(C)cc(-c3ccccc3)nc2c1S(=O)(=O)c1ccccc1
2. Cc1cc(C)n2nc(N(C)C)c(S(=O)(=O)c3ccc(F)cc3)c2n1
3. Cc1cc(C)n2nc(N(C)CCN(C)C)c(S(=O)(=O)c3ccccc3)c2n1
4. Cc1cc(C)n2nc(N3CCN(C)CC3)c(S(=O)(=O)c3ccccc3)c2n1

OUTPUT:
1: 91; 2: 95; 3: 88; 4: 80

Below are 3 molecules. Give each one its inhibition at 10 µM.
1. CCNc1nn2c(C)cc(C)nc2c1S(=O)(=O)c1ccccc1
2. CNc1nn2c(C)cc(C)nc2c1S(=O)(=O)c1cccc(F)c1
3. CNc1nn2c(C)cc(C)nc2c1S(=O)(=O)c1ccc(F)cc1

OUTPUT:
[104, 97, 99]

INPUT: I'd like to know its inhibition at 10 µM. The molecule in question is `Cc1cc(C)n2nc(NCCCN(C)C)c(S(=O)(=O)c3ccccc3)c2n1`
OUTPUT: 94

Hey, just so you know, these numbers are from patent US8829009B2.
